TARGET OR SYSTEM: purified human plasma kallikrein (Homo sapiens (Human), UniProt P03952)
Sequence (P03952 391-638): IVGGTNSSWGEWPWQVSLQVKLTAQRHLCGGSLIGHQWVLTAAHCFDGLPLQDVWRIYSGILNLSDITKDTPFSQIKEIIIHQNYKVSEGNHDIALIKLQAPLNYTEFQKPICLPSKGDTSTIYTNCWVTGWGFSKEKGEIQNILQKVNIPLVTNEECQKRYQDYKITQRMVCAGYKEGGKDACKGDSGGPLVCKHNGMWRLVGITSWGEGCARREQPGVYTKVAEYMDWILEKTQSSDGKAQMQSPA
Sequence (P03952 20-390 partner): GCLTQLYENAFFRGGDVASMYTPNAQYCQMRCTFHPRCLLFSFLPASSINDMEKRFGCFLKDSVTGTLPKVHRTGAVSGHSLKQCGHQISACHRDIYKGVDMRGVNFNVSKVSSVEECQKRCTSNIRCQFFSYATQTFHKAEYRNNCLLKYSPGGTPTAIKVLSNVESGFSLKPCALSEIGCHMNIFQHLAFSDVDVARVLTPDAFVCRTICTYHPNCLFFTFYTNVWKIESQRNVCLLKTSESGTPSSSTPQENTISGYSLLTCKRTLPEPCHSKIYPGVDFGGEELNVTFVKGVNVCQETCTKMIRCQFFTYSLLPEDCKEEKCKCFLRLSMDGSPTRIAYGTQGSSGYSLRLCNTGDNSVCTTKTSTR
METHOD: Plasma kallikrein enzyme inhibition assay (chromogenic substrate S-2302)
Type: biochemical
DETAILS: measured at 25° C. (no asterisk)
Structures can show the parent of a compound that is named as a salt.
Reported values of pKi for individual entries
The value called pKi is obtained by taking minus log10 of the concentration in mol/L.

The examples below pair each entry with its known result.
Cc1c2c(nn1C)CCN(C(=O)c1cn(-c3cccc(Cl)c3F)nn1)C2C(=O)Nc1ccc(C(=O)O)cc1 (stereo not drawn) [Example 222] = 7.98
COC1CCN(c2cccc3c2CCN(C(=O)c2cnn(-c4cccc(Cl)c4F)c2C)C3C(=O)Nc2ccc(C(=O)O)cc2)CC1 (racemic) [Example 259, TFA salt] = 7.11
O=C(O)c1ccc(NC(=O)C2c3cccc(N4CCC(N5CCCC5=O)CC4)c3CCN2C(=O)[C@H]2CC(c3cccc(Cl)c3F)=NO2)cc1 (single isomer, unassigned) [Example 208, TFA salt] = 6.35
O=C(O)c1ccc(NC(=O)C2c3cccc(N4CCOCC4=O)c3CCN2C(=O)c2cn(-c3cccc(Cl)c3F)nn2)cc1 (stereo not drawn) [Example 69] = 8.00
O=C(O)c1ccc(NC(=O)C2c3cccc(Br)c3CCN2C(=O)c2cn(-c3cccc(Cl)c3F)nn2)cc1 (stereo not drawn) [Example 110] = 7.64

Given the molecule CN1CCC2(CCN(c3cccc4c3CCN(C(=O)c3cnn(-c5cccc(Cl)c5F)c3)C4C(=O)Nc3ccc(C(=O)O)cc3)CC2)C1=O (stereo not drawn) [Example 107, TFA salt] , write its reported pKi.
7.90

Data origin: patent US9738655B2
